Below: a set of entries, each annotated with reported Pharmacophore torsion angle a(O1, H4, O2, CA1).
# study-system: MASP-2 CCP2-SP (Homo sapiens (Human), UniProt O00187)
# Sequence (O00187 445-686): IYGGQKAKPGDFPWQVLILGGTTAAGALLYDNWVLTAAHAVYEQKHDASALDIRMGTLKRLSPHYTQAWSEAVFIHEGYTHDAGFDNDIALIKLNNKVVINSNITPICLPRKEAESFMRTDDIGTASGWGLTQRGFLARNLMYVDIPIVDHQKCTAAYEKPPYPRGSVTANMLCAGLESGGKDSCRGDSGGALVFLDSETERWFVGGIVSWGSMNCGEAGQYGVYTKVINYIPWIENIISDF
# Sequence (O00187 364-432 partner): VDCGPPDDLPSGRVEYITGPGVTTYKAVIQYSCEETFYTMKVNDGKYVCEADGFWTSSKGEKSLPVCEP
# method: MASP-2 co-crystallization, X-ray crystallography and structure analysis (H-bonds, van der Waals contacts)
# test-conditions: Table A7-1; between pharmacophore elements of the bound compound
Counter-ions that a name gives are not always drawn.
Enter a number only.

# molecule, reported
records = [
    ("C[C@H](NC(=O)[C@H]1C[C@H](Cc2ccccc2)CN1)C(=O)NCc1ccc(C(=N)N)cc1.Cl.Cl [1306_2]", "−12.97"),
    ("C[C@H](NC(=O)[C@H](N)CCc1ccccc1)C(=O)NCc1ccc(N)nc1.Cl.Cl [1007_1]", "−94.99"),
    ("C[C@H](NC(=O)[C@H](N)CCc1cc(Cl)cc(Cl)c1)C(=O)NCc1ccc(C(=N)N)cc1", "−65.17"),
    ("Cc1nc(N)ccc1CNC(=O)[C@H](C)NC(=O)[C@H]1C[C@H](Cc2cc(-c3ccccc3)cs2)CN1 [compound 1399, Dihydrochloride]", "−83.35"),
]

Q: Look up Pharmacophore torsion angle a(O1, H4, O2, CA1): Cc1nc(N)ccc1CNC(=O)[C@H](C)NC(=O)[C@H]1C[C@H](Cc2cccc(Cl)c2)CN1.Cl.Cl [1328_2]
Result: −83.32

Q: Quick one: Pharmacophore torsion angle a(O1, H4, O2, CA1) of `C[C@H](NC(=O)[C@H]1C[C@@H](c2ccccc2)CCN1)C(=O)NCc1cnc2[nH]cc(Cl)c2c1` ?
Result: −96.26

Q: What value of measured Pharmacophore torsion angle a(O1, H4, O2, CA1) is listed for `Cc1nc(N)ccc1CNC(=O)[C@H](C)NC(=O)[C@H]1C[C@H](Cc2ccccc2)CN1` ?
Result: −84.58

Q: I have this molecule here, `Cc1nc(N)ccc1CNC(=O)[C@H](C)NC(=O)[C@H]1C[C@H](Cc2cccc(-c3ccccc3)c2)CN1` , and I need its recorded Pharmacophore torsion angle a(O1, H4, O2, CA1).
Result: −83.05

Q: Reported Pharmacophore torsion angle a(O1, H4, O2, CA1) for `C[C@H](NC(=O)[C@H](N)C1Cc2ccccc2C1)C(=O)NCc1ccc2nc(N)[nH]c2c1` : what is it?
Result: −89.48

Q: Given the entry C[C@H](NC(=O)[C@H]1C[C@@H](c2ccccc2)CCN1)C(=O)NCc1cc(Cl)ccc1O.Cl [1078_5] , report its measured Pharmacophore torsion angle a(O1, H4, O2, CA1).
Result: −52.04

Q: Please look up its Pharmacophore torsion angle a(O1, H4, O2, CA1): `C[C@H](NC(=O)[C@H](N)CCc1ccccc1)C(=O)NCc1ccc(C(=N)N)cc1`
Result: −63.40

Q: For `N=C(N)c1ccc(CNC(=O)[C@@H]2CCN2C(=O)[C@H]2Cc3ccccc3CN2)cc1` , what is its reported Pharmacophore torsion angle a(O1, H4, O2, CA1)?
Result: −61.32

Q: Look up Pharmacophore torsion angle a(O1, H4, O2, CA1): Cc1nc(N)ccc1CNC(=O)C(C)NC(=O)C1CC(c2cccc3ccccc23)CCN1.Cl.Cl (stereo not shown) [1297_6]
Result: −89.84

----------
Recorded Ligand-pharmacophore element distance, pharmacophore element CA4 for the following compounds
# study-system: MASP-2 CCP2-SP (Homo sapiens (Human), UniProt O00187)
# method: MASP-2 co-crystallization, X-ray crystallography and structure analysis (H-bonds, van der Waals contacts);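 for Ligand-pharmacophore element distance, pharmacophore element CA4: distance from averaged pharmacophore element to bound ligand; missing value means element absent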
# test-conditions: Table A4-1; element CA4
Where a name gives a salt, the structure may show the parent alone.
Enter a number only.

Illustrative cases are given below, each with its answer.
# compound, study-system, reported
measured = [
    ("Cc1nc(N)ccc1CNC(=O)[C@H](C)NC(=O)[C@H]1C[C@H](Cc2ccc3ccccc3c2)CN1", "MASP-2 CCP2-SP (Homo sapiens (Human), UniProt O00187)", 1.21),
    ("C[C@H](NC(=O)[C@H]1C[C@@H](c2ccccc2)CCN1)C(=O)NCc1cc(Cl)ccc1O.Cl [1078_4]", "MASP-2 CCP2-SP (Homo sapiens (Human), UniProt O00187)", 0),
    ("Cc1nc(N)ccc1CNC(=O)[C@H](C)NC(=O)[C@H]1C[C@H](Cc2ccccc2-c2ccccc2)CN1 [compound 1373, Di-trifluoroacetate salt]", "MASP-2 CCP2-SP (Homo sapiens (Human), UniProt O00187)", 0),
]

Q: Quick one: Ligand-pharmacophore element distance, pharmacophore element CA4 of Cc1nc(N)ccc1CNC(=O)[C@H](C)NC(=O)[C@H]1C[C@H](Cc2cccc(Cl)c2)CN1.Cl.Cl [1328_3] ?
Result: 0

Q: For `C[C@H](NC(=O)[C@H]1C[C@@H](c2ccccc2)CCN1)C(=O)NCc1cnc2[nH]cc(Cl)c2c1` , what is its reported Ligand-pharmacophore element distance, pharmacophore element CA4?
Result: 0

Q: What value of measured Ligand-pharmacophore element distance, pharmacophore element CA4 is listed for C[C@H](NC(=O)[C@H]1C[C@@H](c2ccccc2)CCN1)C(=O)NCc1cc(Cl)ccc1O.Cl [1078_5] ?
Result: 0

Q: I have this compound here, `C[C@H](NC(=O)[C@H](N)CCc1cccc(Cl)c1)C(=O)NCc1ccc(C(=N)N)cc1` , and I need its recorded Ligand-pharmacophore element distance, pharmacophore element CA4.
Result: 0

Q: Fill blank: measured Ligand-pharmacophore element distance, pharmacophore element CA4 of the compound Cc1nc(N)ccc1CNC(=O)[C@H](C)NC(=O)[C@H]1C[C@@H](c2ccccc2)CCN1 [compound 1253, Dihydrochloride] is ____.
Result: 0

Q: I have this compound here, CC(=O)Nc1ccc(CCNC(CCc2ccccc2)C(=O)NC(C)C(=O)NCc2ccc(C(=N)N)cc2)cc1.Cl.Cl (stereo not drawn) [1345_2] , and I need its recorded Ligand-pharmacophore element distance, pharmacophore element CA4.
Result: 0

Q: Tell me the measured Ligand-pharmacophore element distance, pharmacophore element CA4 of C[C@H](NC(=O)[C@H]1C[C@@H](c2ccccc2)CCN1)C(=O)NCc1cc(Cl)ccc1O.Cl [1078_15] , please.
Result: 0

Q: Fill in the blank: the reported Ligand-pharmacophore element distance, pharmacophore element CA4 of CC(=O)Nc1ccc(CCNC(CCc2ccccc2)C(=O)NC(C)C(=O)NCc2ccc(C(=N)N)cc2)cc1.Cl.Cl (stereo not drawn) [1345_1] is ____.
Result: 0

Q: Field request: Ligand-pharmacophore element distance, pharmacophore element CA4 | item: C[C@H](NC(=O)[C@H]1C[C@@H](c2ccccc2)CCN1)C(=O)NCc1cc(Cl)ccc1O.Cl [1078_12]
Result: 0

Q: Using the record for `Cc1nc(N)ccc1CNC(=O)[C@H](C)NC(=O)[C@H]1C[C@H](Cc2cccc(-c3ccccc3)c2)CN1` , report its Ligand-pharmacophore element distance, pharmacophore element CA4.
Result: 1.59

Q: Reported Ligand-pharmacophore element distance, pharmacophore element CA4 for Cc1nc(N)ccc1CNC(=O)C(C)NC(=O)C1CC(c2cccc3ccccc23)CCN1.Cl.Cl (stereo not drawn) [1297_1] : what is it?
Result: 1.24

Q: # lookup: Ligand-pharmacophore element distance, pharmacophore element CA4 of C[C@H](NC(=O)[C@H]1C[C@@H](c2ccccc2)CCN1)C(=O)NCc1cc(Cl)ccc1O.Cl [1078_1]
Result: 0
